- study.target: PPAR-γ (Homo sapiens, UniProt P37231)
- Construct: endogenous in cells; host or cells: HeLa
- experimental.details: PPAR-γ ELISA Assay in HeLa cells (in vitro PPAR-γ assay)
- Format: cell-based
- condition: 50 μg/mL, Table 2
observable: activation at 50 µg/mL (%)
Express your answer in %, writing the number without its unit.

| compound | activation at 50 µg/mL, % |
| --- | --- |
| O=c1cc(-c2ccc(O)cc2)oc2c([C@H]3OC(CO)[C@@H](O)[C@H](O)C3O)c(O)cc(O)c12 (stereo partly drawn) | 57 |
| Oc1cccc(CCc2ccc3c(c2)OCO3)c1 | 0 |

Form: compound = COc1cc(O[C@@H]2OC(CO)[C@H](O)[C@H](O)C2O)c2c(-c3ccc(O)c(O)c3)cc(=O)oc2c1 (stereo partly drawn) ; activation at 50 µg/mL = 21

* * *

- study.target: PPAR-γ (Homo sapiens)
- Construct: endogenous in cells; host or cells: HeLa
- Sequence (P37231 1-505): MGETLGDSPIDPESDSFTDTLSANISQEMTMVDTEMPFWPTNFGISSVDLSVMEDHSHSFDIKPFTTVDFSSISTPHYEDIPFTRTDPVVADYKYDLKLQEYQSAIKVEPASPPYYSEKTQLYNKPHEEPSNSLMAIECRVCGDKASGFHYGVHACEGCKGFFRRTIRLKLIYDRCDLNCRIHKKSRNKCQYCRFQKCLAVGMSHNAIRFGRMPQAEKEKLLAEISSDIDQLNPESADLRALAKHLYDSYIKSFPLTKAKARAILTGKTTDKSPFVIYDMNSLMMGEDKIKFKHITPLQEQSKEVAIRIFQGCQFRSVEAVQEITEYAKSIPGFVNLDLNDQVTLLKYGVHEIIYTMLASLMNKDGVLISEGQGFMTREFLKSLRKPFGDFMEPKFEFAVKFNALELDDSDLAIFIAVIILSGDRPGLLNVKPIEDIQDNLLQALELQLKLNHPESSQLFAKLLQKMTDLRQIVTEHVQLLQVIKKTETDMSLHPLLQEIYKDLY
- experimental.details: PPAR-γ ELISA Assay in HeLa cells (in vitro PPAR-γ assay)
- Assay type: cell-based
- condition: 50 μg/mL, Table 2
Collected activation at 50 µg/mL values appear next to each entry.
Supply the numeric figure in %, leaving out any unit text.

Reference set (2 entries):
| compound | activation at 50 µg/mL (%) |
| --- | --- |
| CC(C)(O)CCC(=O)[C@](C)(O)[C@H]1[C@H](O)C[C@@]2(C)C3CC=C4[C@@H](CC(O)[C@H](O[C@@H]5OC(CO)[C@@H](O)[C@H](O)C5O)C4(C)C)C3C(=O)C[C@@]12C (stereo partly shown) [Compound 27] | 65 |
| C=C1CC[C@H]2C(=C)CC[C@H]3C(=C)C(=O)O[C@@H]3[C@@H]12 [Compound 29] | 0 |

Measured activation at 50 µg/mL of C/C=C/C1=CC=C/C(=C2/C(=O)CCNC2=O)O1 [Compound 30] : 37

Noted for COc1cc(O[C@@H]2OC(CO)[C@@H](O)[C@H](O)C2O)c2c(-c3ccc(O)c(O)c3)cc(=O)oc2c1 (stereo partly shown) [Compound 23] : its activation at 50 µg/mL reads 145

The compound listed as C[C@]12C[C@@H](O)CC3(CCC4[C@@](C)(CCC[C@@]4(C)C(=O)O[C@@H]4OC(CO)[C@@H](O[C@@H]5OC[C@H](O)[C@H](O)C5O)[C@H](O)C4O)C3C(=O)O1)C2 (stereo partly shown) [Compound 28] has a reported activation at 50 µg/mL of 0

Input COc1cc(O)c2c(c1)OC(c1ccc(O)cc1)CC2=O (stereo not shown) [Compound 19] . Output activation at 50 µg/mL: 77

Entry under test: COc1ccc(-c2cc(=O)c3c(O)cc(O)cc3o2)cc1 [Compound 17] . Its activation at 50 µg/mL was 0
